- targetUnderTest: T1, human glucose-dependent insulinotropic polypeptide (GIP) receptor (human, UniProt P48546 22-466)
- T1 sequence (looked up): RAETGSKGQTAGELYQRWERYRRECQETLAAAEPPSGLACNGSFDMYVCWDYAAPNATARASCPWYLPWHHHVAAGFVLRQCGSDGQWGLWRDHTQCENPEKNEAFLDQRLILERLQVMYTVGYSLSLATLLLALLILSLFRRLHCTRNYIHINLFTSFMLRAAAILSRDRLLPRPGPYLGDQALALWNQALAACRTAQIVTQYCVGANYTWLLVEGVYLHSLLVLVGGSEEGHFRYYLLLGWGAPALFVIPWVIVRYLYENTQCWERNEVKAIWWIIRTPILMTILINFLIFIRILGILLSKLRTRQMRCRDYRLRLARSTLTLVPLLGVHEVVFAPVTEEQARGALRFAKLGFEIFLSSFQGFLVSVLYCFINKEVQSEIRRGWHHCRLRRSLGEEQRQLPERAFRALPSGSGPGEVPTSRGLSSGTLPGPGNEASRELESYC
- assaySummary: cell-based or functional assay
*1 amine or outer side, *2 acyl side, *3 side chain or, on linkers, in order; H or OH if unused. Where no end group is shown, it is not given here. Side-chain parts run from the residue outwards. [ ]: non-standard residue; d: D form. The star is where a group is joined. γGlu = O=C(O)[C@H](CCC(=O)[*:2])N[*:1]; C14 diacid = O=C(O)CCCCCCCCCCCCC(=O)*; αMeY = C[C@](N)(Cc1ccc(O)cc1)C(=O)O; αMeF = C[C@](N)(Cc1ccccc1)C(=O)O; αMeL = CC(C)C[C@](C)(N)C(=O)O; Orn = NCCC[C@H](N)C(=O)O; AEEA = NCCOCCOCC(=O)O; Aib = CC(C)(N)C(=O)O
measureName: cAMP Emax (%)
One number for each entry, in %.

Data request: Reported cAMP Emax for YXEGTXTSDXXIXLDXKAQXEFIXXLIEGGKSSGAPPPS (Aib2, αMeF(2F)6, 4Pal10, αMeS11, αMeL13, Orn16, K17(Z), Aib20, D-Glu24, αMeY25, K31(Z), C-terminal NH2; Z = AEEA2-(γ-Glu)-CO-(CH2)12-CO2H) [Example 213] : what is it?
Data returned: 92

Data request: Next binder up: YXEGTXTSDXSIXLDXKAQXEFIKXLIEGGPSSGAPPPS (Aib2, αMeF(2F)6, 4Pal10, αMeL13, Orn16, K17(Z), Aib20, K24(Z), αMeY25, C-terminal NH2; Z = (εK)-(εK)-(γ-Glu)-CO-(CH2)12-CO2H) [Example 162]
Data returned: 89.7

Data request: Same question, YXEGTXTSDXSIXLDXIAQXKFIXXLIEGGKSSGAPPPS (not fully specified; Aib2, αMeF(2F)6, 4Pal10, αMeL13, Orn16, Aib20, K21(AEEA2-CO-(CH2)12-CO2H), D-Glu24, αMeY25, K31(AEEA2-CO-(CH2)2-CO2H as printed), C-terminal NH2) [Example 195] this time
Data returned: 88.5

Data request: Also check YXEGTXTSDXSIXLDXKAQXEFIEXLIEGGKSSGAPPPS (Aib2, αMeF(2F)6, 4Pal10, αMeL13, Orn16, K17(Z), Aib20, αMeY25, K31(Z), C-terminal NH2; Z = AEEA2-(γ-Glu)-CO-(CH2)12-CO2H) [Example 158]
Data returned: 93.4

Data request: Also need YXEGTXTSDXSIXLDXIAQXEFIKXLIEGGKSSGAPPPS (Aib2, αMeF(2F)6, 4Pal10, αMeL13, Orn16, Aib20, K24(Z), αMeY25, K31(Z), C-terminal NH2; Z = (εK)-(εK)-(γ-Glu)-CO-(CH2)12-CO2H) [Example 198] , thanks.
Data returned: 94

// switching to the query binder
Data request: Sample Y[Aib]EGT[αMeF]TSDV[Aib]I[αMeL]LD[Orn]K([AEEA-AEEA-γGlu-C14 diacid])AQ[Aib]EFIK([AEEA-AEEA-γGlu-C14 diacid])[αMeY]LIEGGKSSGAPPPS-NH2 (not fully specified) [Example 182] — what was its cAMP Emax?
Data returned: 89
